Below, each entry is listed with its recorded GI50.
tested on: A498; test: NCI tumour cell line growth inhibition, 48 h
Activity calls are given as the source filed them. Cut-off read from the data, not from the text of the source: active = GI50 up to about 1.1 µM and inactive = higher.

Examples with answers:
# GI50 (compound: CC1=C2C=CC(=O)C[C@@]2(C)CCC1 ) is > 100 µM (inactive)

GI50 reported for this compound CN(C)c1ccc(/C=C(\C#N)C(N)=C(C#N)C#N)cc1 : > 100 µM (inactive)

Consider now this further compound.
// GI50 lookup, compound = COc1cc(/C=C2/C(=O)N(C(=O)c3ccc(Cl)cc3)N=C2C)cc(OC)c1OC , result: > 100 µM (inactive)

====

system: T47D; test: NCI tumour cell line growth inhibition, 48 h
Active and inactive are the calls of the source. Cut-off read from the data, not from the text of the source: active = GI50 up to about 1.1 µM and inactive = higher.
# valid calls are active, inactive; nothing else

Examples from the recorded data:
Problem: # outcome recorded in this test, key = Cn1c2c(c3ccccc31)CCN(CCCCN1CCN(c3ccccc3)CC1)C2=O
Result: inactive

Problem: Which outcome did this test record for the compound COc1cc2c(cc1O)C1Cc3ccc(OC)c(O)c3C(C2)N1C (stereo unspecified) ?
Result: inactive

Now for another entry.
Problem: Check the results log: what was the call for CN1/C(=C\N=O)C(C)(C)N(O)C1(C)C ?
Result: inactive

====

system: MCF7; assay: NCI tumour cell line growth inhibition, 48 h
Activity calls are given as the source filed them. Cut-off read from the data, not from the text of the source: active = GI50 up to about 1.1 µM and inactive = higher.
I would appreciate it if you answered using one of these outcomes: y for active, n for inactive

Problem: Check the results log: what was the call for COc1cc2c(cc1OC)C1C(O)C(OC)C(Br)C3(Br)CCN(C2)C13 (stereo not drawn) ?
Result: n

Problem: Test call for this compound, please: C=CCOc1ccc(C(=N/NC(=O)c2ccccc2)/N=N/c2ccc(C)cc2)cc1OC
Result: n

Problem: Returns: the outcome recorded for Cc1ccc(-c2cs/c(=N\c3ccccc3)n2NC(=O)c2ccncc2)cc1 in this assay.
Result: n

Problem: Hey, what did the test say about O=[N+]([O-])c1cc(F)ccc1S(=O)(=O)c1ccccc1 ?
Result: n

Problem: Please state the recorded outcome for this compound: Cc1nc2ccccc2c(=O)n1/N=C/c1ccc(N(C)C)cc1
Result: n

Continuing:
Problem: Tell me the recorded outcome of this test for COC(=O)C1C(C(=O)OC)N(Cc2ccccc2)C(=O)N1Cc1ccccc1 (stereo not drawn) .
Result: n

Problem: Recorded test call requested for O=C1C=CN(C2OC(CO)C(O)C2O)C(=O)C1 (stereo not drawn)
Result: n

Problem: Hello, I am checking results. What call was entered for CC(=O)/C=C/C1=C(C)CCCC1(C)CC(C)C (stereo not drawn) ?
Result: n

Problem: In this assay, the call recorded for CC(C)(C)c1ccc(C(C)(C)C)c(N2C(=O)[C@@H]3[C@@H]4C=C[C@@H](C4)[C@]3(C)C2=O)c1 was what?
Result: n

Problem: Recorded test outcome, item COc1ccc2nc3n(c2c1)CCc1cc(OC)c(OC)cc1-3
Result: n

====

test system: SN12C; assay: NCI tumour cell line growth inhibition, 48 h
Calls of active or inactive are those of the source. No stated cut-off is given here; in the data, active = GI50 up to about 1.1 µM and inactive = higher.
Metric name: GI50

Answered cases to consult:
So for C=C(CN(C)C)C(=O)c1ccccc1OC , the logged GI50 turned out to be 18.9 µM (inactive)

Sure, the documented GI50 for Cc1cccc(N(CC(=O)O)S(=O)(=O)c2ccccc2)c1 is > 100 µM (inactive)

New cases:
So, O=C(NC1C(=O)NC(CCc2ccccc2)NC1=O)OCc1ccccc1 (centres undefined) ? Its GI50 was > 100 µM (inactive)

Form: compound = COC1=C(C(=O)OC(C)(C)C)[C@]2(C)C(C(=O)OC(C)(C)C)C(OC)=C(C(=O)OC(C)(C)C)[C@]2(C)C1C(=O)OC(C)(C)C (some centres undefined) ; GI50 = > 100 µM (inactive)

The value of GI50 measured for the compound N#C/C(=C/c1ccc[nH]1)P(=O)(O)O turned out to be > 100 µM (inactive)

The reported GI50 of the compound Cn1cc(S(=O)(=O)NC(=O)Nc2ccc(Cl)cc2)c2ccccc21 was > 100 µM (inactive)

Just so you know, measured GI50 for O=C(Cn1c2ccc(Br)cc2c2nc3ccccc3nc21)NNC(=O)NC1CCCCC1 came out at 52.8 µM (inactive)

Kindly note the recorded GI50 for COc1ccc2nc3n(c2c1)CCc1cc(OC)c(OC)cc1-3 , which is 63.1 µM (inactive)

Briefly, GI50 measured for O=C(Nc1ccc(Cl)cc1)c1cc(S(=O)(=O)Nc2n[nH]c(=O)[nH]2)c(SSc2cc(Cl)c(C(=O)Nc3ccc(Cl)cc3)cc2S(=O)(=O)Nc2n[nH]c(=O)[nH]2)cc1Cl : > 100 µM (inactive)

compound O=C1c2ccccc2C2CNC1(O)c1ccccc12 (centres undefined) , GI50 observed: > 100 µM (inactive)

The recorded GI50 for entry N#CC(C(=O)CCC(=O)Nc1cccc(C(F)(F)F)c1)c1ccc(Cl)cc1 (centres undefined) equals > 100 µM (inactive)

// GI50 lookup, compound = c1cc2c(s1)-c1sccc1C21OCCO1 , result: > 100 µM (inactive)

GI50 for CC(C)(C)Sc1nnc(SC(C)(C)C)c2c(SC(C)(C)C)nnc(O)c12 is 10.2 µM (inactive)

Input COc1ccc(C2COc3c(ccc(O)c3C)C2)cc1OC (centres undefined) . Output GI50: 104 µM (inactive)
